system: TDF; test: cell number relative to DMSO (% of DMSO); higher = more cells (less growth inhibition / toxicity); details: concentration: 10 µM; 24 h;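 also: TDF denotes transformed human dermal fibroblasts of mesenchymal origin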
endpoint: cell number
Lab note: record the figure alone, no unit after it.

Example cases with answers are listed next.
compound | recorded-measurement
NC(N)=NCc1cccc(I)c1.NC(N)=NCc1cccc(I)c1.O=S(=O)(O)O [m-Iodobenzylguanidine hemisulfate] | 98.8
CCCCC1CCC(c2nc(-c3ccncc3)no2)CC1 (stereo not drawn) [4-[5-(4-butylcyclohexyl)-1,2,4-oxadiazol-3-yl]pyridine] | 98.3
CCN(CC)C(=O)c1ccc(O)c(OC)c1 [Vanillic acid diethylamide] | 103
CN(C)S(=O)(=O)c1ccc2c(c1)C(=Cc1cc3c([nH]1)CCCC3)C(=O)N2 | 48
N#CC(=Cc1ccc(O)c(O)c1)C(=O)NCc1ccccc1 [Tyrphostin AG 490] | 107
O=C(Nc1ccc(N2CCOCC2)c(S(=O)(=O)Nc2ccccc2Cl)c1)c1ccncc1 | 110
CCOC(=O)Nc1ccc(NCc2ccc(F)cc2)nc1N.O=C(O)C=CC(=O)O [Flupirtine maleate] | 99.2

Next compound, please.
Fill blank: measured cell number of the compound Br.CN1C2CCC1CC(OC(=O)C(O)c1ccccc1)C2 (racemic) [DL-Homatropine hydrobromide] is ____.
109

###

system: HCC1569; test: H1.0 immunofluorescence intensity relative to DMSO (% of DMSO); higher = stronger H1.0 induction, active = 140 or more; settings: concentration: 10 µM; 24 h;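 also: TDF is a line of transformed human dermal fibroblasts of mesenchymal origin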
Recorded H1.0 immunofluorescence intensity for the following compounds

compound | endpoint | recorded-measurement
Cl.Cl.Fc1ccc(C(c2ccc(F)cc2)N2CCN(CC=Cc3ccccc3)CC2)cc1 [Flunarizine.2HCl] | H1.0 immunofluorescence intensity | 112 (inactive)

Lookup: H1.0 immunofluorescence intensity / HCC1569 / COc1cc(C2Oc3cc(C4Oc5cc(O)cc(O)c5C(=O)C4O)ccc3OC2CO)ccc1O (centres undefined) [Silybine]
90.2 (inactive)

State its H1.0 immunofluorescence intensity on HCC1569: `COc1ccc2c(c1OC)N=C(NC(=O)c1cccnc1)N1CCN=C21`
101 (inactive)

API: value(readout=H1.0 immunofluorescence intensity, system=HCC1569) for record O=c1cc(-c2ccc(O)c(O)c2)oc2cc(O)c(C3OC(CO)C(O)C(O)C3O)c(O)c12 (centres undefined) [Homoorientin];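 also: TDF is a line of transformed human dermal fibroblasts of mesenchymal origin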
90.4 (inactive)

###

test system: HCC1569; experiment: H1.0 immunofluorescence intensity relative to DMSO (% of DMSO); higher = stronger H1.0 induction, active = 140 or more; settings: concentration: 10 µM; 24 h;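 also: TDF is a line of transformed human dermal fibroblasts of mesenchymal origin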
# H1.0 immunofluorescence intensity annotations
Give only the figure.

Reference set (5 entries):
compound | endpoint | recorded-measurement
CCCCCCCCCCCCCC=CC(O)C(CO)N(C)C (stereo unspecified) [N,N-Dimethylsphingosine] | H1.0 immunofluorescence intensity | 101
Cl.O=C(O)C1CCCN(CCC=C(c2ccccc2)c2ccccc2)C1 (stereo unspecified) | H1.0 immunofluorescence intensity | 98.1
CCCCCC(O)C=CC1C(O)CC(O)C1CC=CCCCC(=O)O (stereo unspecified) [9a,11b Prostaglandin F2] | H1.0 immunofluorescence intensity | 101
Cl.Cl.NCCNS(=O)(=O)c1cccc2cnccc12 [H-9 dihydrochloride] | H1.0 immunofluorescence intensity | 100
COc1ccc(C2(C#N)CCC(C(=O)O)CC2)cc1OC1CCCC1 (stereo unspecified) | H1.0 immunofluorescence intensity | 90.2

Item CN1CCC(=C2c3ccccc3CC(=O)c3sccc32)CC1.O=C(O)C=CC(=O)O [Ketotifen fumarate] has what recorded H1.0 immunofluorescence intensity?
98.7

Any idea what its H1.0 immunofluorescence intensity is? The compound is CN1CC(O)C(O)C(O)C1CO (stereo unspecified) [N-Methyl-1-deoxynojirimycin]
185

Quick one: H1.0 immunofluorescence intensity of CCCCCCCCCCCCCCCCn1cc[n+](Cc2ccccc2)c1C.[I-] [eEF-2 Kinase Inhibitor, NH125] ?
101

Field request: H1.0 immunofluorescence intensity | item: COc1ccnc(CS(=O)c2nc3ccc(OC(F)F)cc3[nH]2)c1OC (stereo unspecified) [Pantoprazole]
103

Which H1.0 immunofluorescence intensity reading was recorded for the compound CCN1CCN(c2cc3c(cc2F)c(=O)c(C(=O)O)cn3C2CC2)CC1 [Enrofloxacin] ?
110

Returns the measured H1.0 immunofluorescence intensity for the input compound. Input: CCN(CC)C(C)C(=O)N1c2ccccc2Sc2ccccc21.Cl (stereo not drawn) [10-(alpha-Diethylaminopropionyl)-phenothiazine hydrochloride]
85.9
